Please provide measured ABTS IC50 for the entries that follow.
Assay: ABTS free radical scavenging
One number for each entry, in µg/mL.

Example entries begin here.
S=C(Nc1ccccc1)NC(c1ccccn1)C(Cc1ccccc1)Cc1ccccc1 (centres unmarked)
80
Fc1ccccc1NC(=S)Nc1ccccc1
85
S=C(NC(c1ccccn1)C(Cc1ccccc1)Cc1ccccc1)NC(c1ccccn1)C(Cc1ccccc1)Cc1ccccc1 (centres unmarked)
66
O=C1O[C@H]([C@@H](O)CO)C(O)=C1O [Ascorbic acid, reference compound]
55

We next turn to a different compound, shown below.
# get_value(readout='ABTS IC50', item= `Cc1ccc(NC(=S)Nc2ccccc2)c(C)c1` )
100
